- Experimental target: dipeptidyl peptidase IV (UniProt P27487)
- Sequence (P27487 41-765): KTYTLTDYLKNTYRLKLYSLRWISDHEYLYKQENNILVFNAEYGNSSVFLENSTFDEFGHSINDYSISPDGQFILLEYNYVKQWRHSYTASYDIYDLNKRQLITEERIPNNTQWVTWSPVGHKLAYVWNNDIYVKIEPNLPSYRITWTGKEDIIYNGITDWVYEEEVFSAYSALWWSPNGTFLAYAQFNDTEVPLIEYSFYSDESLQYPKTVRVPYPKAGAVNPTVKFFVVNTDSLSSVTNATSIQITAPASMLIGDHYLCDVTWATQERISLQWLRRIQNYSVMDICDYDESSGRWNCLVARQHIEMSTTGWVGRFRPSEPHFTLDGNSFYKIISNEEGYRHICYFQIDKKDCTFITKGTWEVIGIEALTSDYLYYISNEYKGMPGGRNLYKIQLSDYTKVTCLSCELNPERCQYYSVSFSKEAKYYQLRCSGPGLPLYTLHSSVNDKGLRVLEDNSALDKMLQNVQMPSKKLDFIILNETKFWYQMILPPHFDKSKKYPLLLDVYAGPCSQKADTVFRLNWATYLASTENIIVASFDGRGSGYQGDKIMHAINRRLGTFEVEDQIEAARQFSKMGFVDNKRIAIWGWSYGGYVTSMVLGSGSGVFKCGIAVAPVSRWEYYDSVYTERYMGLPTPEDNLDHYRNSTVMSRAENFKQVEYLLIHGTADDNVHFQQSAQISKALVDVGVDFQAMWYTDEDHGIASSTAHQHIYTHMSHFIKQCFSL
Observed property: IC50 of inhibition of DPP-IV activity in vitro (mM)

# count of solved cases: 2
YTPHW	7.11
FDGEL	45.1

(P) YNLP
(Q) YTGD
Qu. Pick one, P or Q : lowest reported IC50 of inhibition of DPP-IV activity in vitro. Kindly state the label of the option you pick.
Ans. Q
